- TEST DESCRIPTION: Pharmacokinetics and total colon distribution after single oral administration
- Format: in vivo, male C57BL/6 mice
- CONDITIONS USED: male, C57BL/6, mouse, total colon; mice, 6 h; Ex. 16 measured after oral 5 mg/kg of Ex. 19 (Na salt); read-out: total colon level
ENDPOINT: concentration at 6 h (ng/g)

[[record]]
molecule = "COc1cc(Nc2cc(Oc3ccc(NC(=O)Nc4cc(C(C)(C)C)cc(NS(C)(=O)=O)c4OC)c4ccccc34)ccn2)ccc1C(=O)NCCOCCOCCO [Example 16]"
unit = "ng/g"
observed = 3320


---

- TEST DESCRIPTION: Pharmacokinetics and total colon distribution after single oral administration
- Format: in vivo, male C57BL/6 mice
- CONDITIONS USED: male, C57BL/6, mouse, blood; mice, 1 h; Ex. 16 measured after oral 5 mg/kg of Ex. 19 (Na salt); read-out: Mean blood concentration
ENDPOINT: concentration at 1 h (ng/mL)

[[record]]
record_smiles = "COc1cc(Nc2cc(Oc3ccc(NC(=O)Nc4cc(C(C)(C)C)cc(NS(C)(=O)=O)c4OC)c4ccccc34)ccn2)ccc1C(=O)NCCOCCOCCO"
observed = 1.4


---

- TEST DESCRIPTION: Solubility in fasted-state simulated colonic fluid (FaSSCoF) at pH 6.5
- Assay type: physicochemical
- CONDITIONS USED: 25 °C, pH 6.5, fassgf or other biorelevant, thermodynamic from solid, pH 6.5 FaSSCoF Solubility (mg/mL) Run 1
Counter-ions that a name gives are not always drawn.
ENDPOINT: solubility thermodynamic at 24 h

[[record]]
compound = "COc1cc(Nc2cc(Oc3ccc(NC(=O)Nc4cc(C(C)(C)C)cc(NS(C)(=O)=O)c4OC)c4ccccc34)ccn2)cc(OC)c1C(=O)NCCOCCOCCOP(=O)(O)O [47 (sodium salt)]"
observed = "> 1900 µg/mL"

[[record]]
compound = "COc1cc(Nc2cc(Oc3ccc(NC(=O)Nc4cc(C(C)(C)C)cc(NS(C)(=O)=O)c4OC)c4ccccc34)ccn2)ccc1C(=O)NC[C@H](O)[C@@H](O)[C@H](O)[C@H](O)CO"
observed = "2 µg/mL"

[[record]]
compound = "COc1cc(Nc2cc(Oc3ccc(NC(=O)Nc4cc(C(C)(C)C)cc(NS(C)(=O)=O)c4OC)c4ccccc34)ccn2)cc(OC)c1C(=O)NCC1CCN(C)CC1"
observed = "2 µg/mL"


---

The molecules listed here are annotated with their solubility thermodynamic at 24 h.
- TEST DESCRIPTION: Solubility in fasted-state simulated colonic fluid (FaSSCoF) at pH 6.5
- Assay type: physicochemical
- CONDITIONS USED: 25 °C, pH 6.5, fassgf or other biorelevant, thermodynamic from solid, pH 6.5 FaSSCoF Solubility (mg/mL) Run 1
- Method: The solubilities of compounds of the invention in FaSSCoF at pH 6.5 are determined using a modification of a previously-reported procedure (Vertzoni, M., et al. Pharm. Res. 2010, 27, 2187-2196). […] Test compounds are suspended in the pH 6.5 FaSSCoF medium to give a maximum final concentration of 2-10 mg/mL. […] The filtrates are then diluted as appropriate for injection and quantification by HPLC with reference to a standard. […]
ENDPOINT: solubility thermodynamic at 24 h (µg/mL)

[[record]]
molecule = "COc1cc(Nc2cc(Oc3ccc(NC(=O)Nc4cc(C(C)(C)C)cc(N(CCO)S(C)(=O)=O)c4OC)c4ccccc34)ccn2)ccc1C(=O)NCCN1CC[S+]([O-])CC1 [Example 48]"
observed = 11

[[record]]
molecule = "COc1cc(Nc2cc(Oc3ccc(NC(=O)Nc4cc(C(C)(C)C)cc(NS(C)(=O)=O)c4OC)c4ccccc34)ccn2)cc(OC)c1C(=O)NCCC1CCN(C)CC1 [17(at)]"
observed = 9

[[record]]
molecule = "COc1cc(Nc2cc(Oc3ccc(NC(=O)Nc4cc(C(C)(C)C)cc(NS(C)(=O)=O)c4OC)c4ccccc34)ccn2)ccc1C(=O)NCCN1CCN(C(C)C)CC1 [17(bf)]"
observed = 13

[[record]]
molecule = "COc1cc(Nc2cc(Oc3ccc(NC(=O)Nc4cc(C(C)(C)C)cc(NS(C)(=O)=O)c4OC)c4ccccc34)ccn2)ccc1-n1ccccc1=O [Example 31]"
observed = 3

[[record]]
molecule = "COc1cc(Nc2cc(Oc3ccc(NC(=O)Nc4cc(C(C)(C)C)cc(NS(C)(=O)=O)c4OC)c4ccccc34)ccn2)ccc1C(=O)NCCC(=O)N1C[C@H](O)[C@@H](O)[C@H](O)[C@H]1CO [17(cf)]"
observed = 3


---

- Test system: Jurkat cells
- TEST DESCRIPTION: Cell cytotoxicity assay (r)
- Format: cell-based, human
- CONDITIONS USED: 24 hours, 5 μg/mL
- Description: 1×10^5 Jurkat cells (immortalised human T lymphocytes) are added to the appropriate number of wells of a 96 well plate in 100 μL of media (RPMI supplemented with 10% foetal bovine serum). […] After 15 minutes, cells are analysed by flow cytometry (BD accuri) using the FL3 window. The % viability is calculated as the % of cells that are PI negative in the test wells normalised to the DMSO control.
ENDPOINT: % Viability at 5 μg/mL (%)

[[record]]
compound = "COc1cc(Nc2cc(Oc3ccc(NC(=O)Nc4cc(C(C)(C)C)cc(NS(C)(=O)=O)c4OC)c4ccccc34)ccn2)ccc1C(=O)NCCOCCO [17(bm)]"
observed = 0.2

[[record]]
compound = "C#Cc1cc(Nc2cc(Oc3ccc(NC(=O)Nc4cc(C(C)(C)C)cc(NS(C)(=O)=O)c4OC)c4ccccc34)ccn2)ccc1C(=O)NCCN1CCOCC1 [Example 15]"
observed = 75.0

[[record]]
compound = "COc1cc(Nc2nccc(Oc3ccc(NC(=O)Nc4cc(C(C)(C)C)cc(NS(C)(=O)=O)c4OC)c4ccccc34)n2)ccc1C(=O)NCCN1CCN(C)CC1 [17(aq)]"
observed = 0.2

[[record]]
compound = "COCCN(C)CCNC(=O)c1ccc(Nc2cc(Oc3ccc(NC(=O)Nc4cc(C(C)(C)C)cc(NS(C)(=O)=O)c4OC)c4ccccc34)ccn2)cc1OC [17(ad)]"
observed = 6.3

[[record]]
compound = "CCN1CCN(CCNC(=O)c2ccc(Nc3cc(Oc4ccc(NC(=O)Nc5cc(C(C)(C)C)cc(NS(C)(=O)=O)c5OC)c5ccccc45)ccn3)cc2OC)CC1 [17(be)]"
observed = 0.7


---

pIC50: −log10 of the molar value.
Below are pIC50 values measured for GSK 3α (Homo sapiens (Human)).
ENDPOINT: pIC50

[[record]]
molecule = "COc1cc(Nc2cc(Oc3ccc(NC(=O)Nc4cc(C(C)(C)C)cc(NS(C)(=O)=O)c4OC)c4ccccc34)ccn2)ccc1C(=O)NCCN1CCS(=O)(=O)CC1 [17(r)]"
observed = 5.39

[[record]]
molecule = "COc1cc(Nc2cc(Oc3ccc(NC(=O)Nc4cc(C(C)(C)C)cc(NS(C)(=O)=O)c4OC)c4ccccc34)ccn2)ccc1C(=O)NCCN1CCOCC1 [Example 2]"
observed = 5.64

[[record]]
molecule = "COc1cc(Nc2cc(Oc3ccc(NC(=O)Nc4cc(C(C)(C)C)cc(NS(C)(=O)=O)c4OC)c4ccccc34)ccn2)ccc1C(=O)NCC(=O)N1CCOCC1 [17(e)]"
observed = 5.13


---

- TEST DESCRIPTION: Pharmacokinetics and total colon distribution after single oral administration
- Type: in vivo, male C57BL/6 mice
- CONDITIONS USED: male, C57BL/6, mouse, total colon; mice, 1 h; Ex. 16 measured after oral 5 mg/kg of Ex. 19 (Na salt); read-out: total colon level
- Experimental: Studies were conducted by Sai Life Sciences (Hinjewadi, Pune, India) to investigate the systemic pharmacokinetics and total colon tissue distribution of compounds of the invention. In particular, pharmacokinetic studies were carried out in male C57BL/6 mice following a single oral administration of the compound.
ENDPOINT: concentration at 1 h (ng/g)

[[record]]
record_smiles = "COc1cc(Nc2cc(Oc3ccc(NC(=O)Nc4cc(C(C)(C)C)cc(NS(C)(=O)=O)c4OC)c4ccccc34)ccn2)ccc1C(=O)NCCOCCOCCO"
observed = 110


---

- TEST DESCRIPTION: Pharmacokinetics and total colon distribution after single oral administration
- Format: in vivo, male C57BL/6 mice
- CONDITIONS USED: male, C57BL/6, mouse, plasma; mice, oral 5 mg/kg, 0.5 h; measured cpd = dosed cpd (1 as Na salt, 44 as NH4+ salt); read-out: Mean plasma concentration
ENDPOINT: concentration at 0.5 h (ng/mL)

[[record]]
compound = "COc1cc(Nc2cc(Oc3ccc(NC(=O)Nc4cc(C(C)(C)C)cc(NS(C)(=O)=O)c4OC)c4ccccc34)ccn2)ccc1P(C)(=O)O [Example 44]"
observed = 0


---

- TEST DESCRIPTION: Pharmacokinetics and total colon distribution after single oral administration
- Format: in vivo, male C57BL/6 mice
- CONDITIONS USED: male, C57BL/6, mouse, plasma; mice, oral 5 mg/kg, 4 h; measured cpd = dosed cpd (1 as Na salt, 44 as NH4+ salt); read-out: Mean plasma concentration
ENDPOINT: concentration at 4 h (ng/mL)

[[record]]
compound = "COc1cc(Nc2cc(Oc3ccc(NC(=O)Nc4cc(C(C)(C)C)cc(NS(C)(=O)=O)c4OC)c4ccccc34)ccn2)ccc1P(C)(=O)O [Example 44]"
observed = 0


All figures here come from patent US9751837B2.
